# ASSAY: Test Example 1: Pharmacokinetic study in rats (intravenous)
# Format: in vivo
# EXPERIMENTAL CONTEXT: rat; SD rats, 5 mg/kg intravenous injection, plasma
REPORTED ENDPOINT: Tmax

[2H]C([2H])(CC[C@@H](C(=O)O)N1Cc2c(cc(O)c3c2O[C@@](C)(CC/C=C(\C)CCC=C(C)C)[C@@H](O)C3)C1=O)N1Cc2c(cc(O)c3c2O[C@@](C)(CC/C=C(\C)CCC=C(C)C)[C@@H](O)C3)C1=O [Compound 1, δ-Deutero SMTP-7] = 4.8 min

API: the following record is the query input.
Query: Consider the molecule shown here: CC(C)=CCC/C(C)=C/CC[C@]1(C)Oc2c(c(O)cc3c2CN(CCC[C@@H](C(=O)O)N2Cc4c(cc(O)c5c4O[C@@](C)(CC/C=C(\C)CCC=C(C)C)[C@@H](O)C5)C2=O)C3=O)C[C@@H]1O [SMTP-7] What is its recorded Tmax?
Result: 4.8 min
